Please provide measured MIC for the entries that follow.
- System: Staphylococcus aureus
- experiment summary: Antibacterial activity against methicillin-resistant Staphylococcus aureus USA300 assessed as inhibition of bacterial growth after 18 hrs in presence of oxacillin by CLSI protocol based broth microdilution assay
- Assay type: functional
Report the value in µg/mL with no unit label.

Entry under review: COc1cccc(OC)c1C(=O)N[C@@H]1C(=O)N2[C@@H]1SC(C)(C)[C@@H]2C(=O)O . Reported MIC?
32

Entry under review: CC1(C)S[C@@H]2[C@H](NC(=O)[C@H](N)c3ccccc3)C(=O)N2[C@H]1C(=O)O . Reported MIC?
8

Entry under review: CC(C)(O/N=C(\C(=O)N[C@@H]1C(=O)N2C(C(=O)[O-])=C(C[n+]3ccccc3)CS[C@H]12)c1csc(N)n1)C(=O)O . Reported MIC?
512

Entry under review: Cc1onc(-c2ccccc2)c1C(=O)N[C@@H]1C(=O)N2[C@@H]1SC(C)(C)[C@@H]2C(=O)O . Reported MIC?
32

Entry under review: CO[C@@]1(NC(=O)Cc2cccs2)C(=O)N2C(C(=O)O)=C(COC(N)=O)CS[C@@H]21 . Reported MIC?
32

---

- Test system: Staphylococcus aureus
- experiment summary: Potentiation of oxacillin induced antibacterial activity against methicillin-resistant Staphylococcus aureus COL assessed as oxacillin MIC at 50 uM after 18 hrs by CLSI protocol based broth microdilution assay
- Format: functional
Please provide measured MIC for the entries that follow.
Report the value in µg/mL with no unit label.

Entry under review: Brc1ccc2c(c1)[nH]c1cc(Br)ccc12 . Reported MIC?
256

Entry under review: CC(C(=O)O)c1ccc2c(c1)[nH]c1ccc(Cl)cc12 (stereo unspecified) . Reported MIC?
512

Entry under review: Fc1ccc2[nH]c3ccccc3c2c1 . Reported MIC?
512

Entry under review: Clc1ccc2c(c1)[nH]c1ccccc12 . Reported MIC?
512

Entry under review: Oc1cccc2[nH]c3ccccc3c12 . Reported MIC?
512

Entry under review: Nc1ccc2[nH]c3ccc(N)cc3c2c1 . Reported MIC?
512

---

- Test system: Staphylococcus aureus
- experiment summary: Potentiation of oxacillin induced antibacterial activity against methicillin-resistant Staphylococcus aureus COL assessed as oxacillin MIC at 50 uM after 18 hrs by CLSI protocol based broth microdilution assay
- Type: functional
Please provide measured MIC for the entries that follow.
Report the value in µg/mL with no unit label.

Entry under review: Brc1cccc2c1[nH]c1ccccc12 . Reported MIC?
512

Entry under review: COc1ccc2[nH]c3ccc(OC)cc3c2c1 . Reported MIC?
512

Entry under review: Ic1ccc2[nH]c3ccccc3c2c1 . Reported MIC?
512

Entry under review: Brc1ccc2[nH]c3ccc(Br)cc3c2c1 . Reported MIC?
128

Entry under review: Brc1ccc2c(c1)[nH]c1ccccc12 . Reported MIC?
512

Entry under review: Brc1ccc2[nH]c3ccccc3c2c1 . Reported MIC?
512

Entry under review: c1ccc2c(c1)[nH]c1ccccc12 . Reported MIC?
512

---

Please provide measured MIC for the entries that follow.
- Test system: Staphylococcus aureus
- experiment summary: Antibacterial activity against methicillin-resistant Staphylococcus aureus COL assessed as inhibition of bacterial growth after 18 hrs in presence of oxacillin by CLSI protocol based broth microdilution assay
- Assay type: functional
Report the value in µg/mL with no unit label.

Entry under review: Cc1onc(-c2ccccc2)c1C(=O)N[C@@H]1C(=O)N2[C@@H]1SC(C)(C)[C@@H]2C(=O)O [OXACILLIN] . Reported MIC?
512

Entry under review: COc1cccc(OC)c1C(=O)N[C@@H]1C(=O)N2[C@@H]1SC(C)(C)[C@@H]2C(=O)O [METHICILLIN] . Reported MIC?
1020

Entry under review: CC(C)(O/N=C(\C(=O)N[C@@H]1C(=O)N2C(C(=O)[O-])=C(C[n+]3ccccc3)CS[C@H]12)c1csc(N)n1)C(=O)O [CEFTAZIDIME] . Reported MIC?
1020

Entry under review: CC1(C)S[C@@H]2[C@H](NC(=O)[C@H](N)c3ccccc3)C(=O)N2[C@H]1C(=O)O [AMPICILLIN] . Reported MIC?
32

Entry under review: CO[C@@]1(NC(=O)Cc2cccs2)C(=O)N2C(C(=O)O)=C(COC(N)=O)CS[C@@H]21 [CEFOXITIN] . Reported MIC?
256
